Kindly state protein stability index for each of the entries shown.
B1: FAM9B (parent)
chain: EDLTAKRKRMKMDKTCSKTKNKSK

Variants of: B1
Assay: protein stability index of a GFP-peptide fusion (GPS, HEK-293T) (PSI 1-6); higher = more stable;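 also: lentivirally expressed fusions sorted by FACS into six bins by GFP to DsRed ratio, PSI derived from sequencing read proportions per bin multiplied by bin number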
Conditions: c terminus: a fixed tail appended
Answers are plain numbers.

Reference set (8 entries):
K24P : 4.93
M12K : 4.79
M12Y : 5.16
D13V : 5.36
L3Q : 5.51
K20R : 4.76
T4V : 5.02
K14H : 5.36

Parameter requested: protein stability index. Apply to each item below.
1. K11G
2. E1W

[A]
5.19
3.89

Below are some variants; for each one, tell me its protein stability index.
1. K20F
2. S23Y
3. M12C
4. T15I
5. C16K
6. S23K
7. M10Q
8. S17M

[A]
1: 4.46; 2: 5.07; 3: 5.06; 4: 5.12; 5: 4.96; 6: 5.06; 7: 5.28; 8: 5.39

Record protein stability index for all entries; do not skip any.
1. K8Y
2. K11T
3. K22C

[A]
[4.33, 4.49, 4.92]

Where these numbers come from: the supplement of paper PMC10567573
